- assay.system: human dopamine D2 receptor subtype (Homo sapiens, UniProt P14416)
- Sequence (P14416 whole entry): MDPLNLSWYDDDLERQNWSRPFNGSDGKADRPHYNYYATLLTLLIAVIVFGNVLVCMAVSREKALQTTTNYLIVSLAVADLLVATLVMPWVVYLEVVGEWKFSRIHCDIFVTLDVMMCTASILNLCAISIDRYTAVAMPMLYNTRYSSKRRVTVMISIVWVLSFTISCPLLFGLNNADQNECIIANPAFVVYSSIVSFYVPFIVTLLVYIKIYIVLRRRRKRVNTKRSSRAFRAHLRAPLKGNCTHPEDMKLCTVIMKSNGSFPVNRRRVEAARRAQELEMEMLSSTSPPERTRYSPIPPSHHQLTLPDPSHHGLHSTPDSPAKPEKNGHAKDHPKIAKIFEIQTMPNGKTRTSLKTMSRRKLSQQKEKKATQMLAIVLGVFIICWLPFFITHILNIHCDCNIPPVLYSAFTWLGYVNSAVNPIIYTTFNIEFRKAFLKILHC
- test.summary: [3H]-Spiperone binding (displacement), human dopamine D2 receptor subtype
- condition: human dopamine D2 receptor subtype expressed in clonal cell lines
pKi: −log10 of the molar value.
readout.kind: pKi

Given item COc1ccc(N2CCN(Cc3c[nH]c4ncccc34)CC2)cc1 , the value recorded as its pKi is < 5.82

Hello, the source for this data is patent US5622950A, in case you need it.
